Where do the numbers come from? From paper PMC7540527.

test system: HEL human embryonic lung fibroblast cells
parameter_measured: CC50

{"compound": "CC(=O)NC1C(OC2c3ccc(c(Cl)c3)Oc3cc4cc(c3O)Oc3ccc(cc3Cl)CC3NC(=O)C(n5cc(COCCOCCCC(F)(F)C(F)(F)C(F)(F)C(F)(F)C(F)(F)C(F)(F)C(F)(F)C(F)(F)F)nn5)c5ccc(O)c(c5)Oc5cc(O)cc(c5)C(NC3=O)C(=O)NC4C(=O)NC3C(=O)NC2C(=O)NC(C(=O)O)c2cc(O)cc(O)c2-c2cc3ccc2O)OC(CO)C(O)C1O (stereo not shown)", "parameter_measured": "CC50", "assay_value": "> 100 µM"}
